Values compiled from patent US6919350B2.

Please respond with reported pIC50 for every item in the list.
target: delta opioid receptor (Rattus norvegicus, UniProt P33533); construct: Rat (Sprague-Dawley) brain membranes were prepared; from tissue; host or cells: rat (Sprague-Dawley) brain membranes; assay: Delta receptor binding in rat brain membranes (Delta Receptor IC50); conditions: rat brain membranes; radioligand 3H-[D-Pen2,D-Pen5]-(enkephalin) 0.1 nM; read-out: Delta Receptor IC50
Sequence (P33533 whole entry): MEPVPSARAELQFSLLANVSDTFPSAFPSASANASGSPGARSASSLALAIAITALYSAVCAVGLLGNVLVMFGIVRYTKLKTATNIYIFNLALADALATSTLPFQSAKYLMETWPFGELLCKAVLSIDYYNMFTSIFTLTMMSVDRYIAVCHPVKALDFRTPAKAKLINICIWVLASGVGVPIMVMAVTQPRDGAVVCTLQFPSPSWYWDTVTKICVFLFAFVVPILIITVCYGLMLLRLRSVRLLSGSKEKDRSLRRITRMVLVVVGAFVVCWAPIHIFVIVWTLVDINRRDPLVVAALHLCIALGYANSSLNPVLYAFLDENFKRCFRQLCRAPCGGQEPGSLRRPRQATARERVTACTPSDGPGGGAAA
A value of pIC50 is the negative decimal logarithm of a concentration given in moles per litre.

q: Endpoint output: pIC50 of C/C=C\CN1[C@H](C)CN(C(c2ccc(C(=O)N(CC)CC)cc2)c2cccc(O)c2)C[C@@H]1C (relative stereo) [Compound 17] . Value?
a: 8.82

q: Also CCN(CC)C(=O)c1ccc([C@H](c2cccc(O)c2)N2C[C@@H](C)NC[C@H]2C)cc1 [Compound 7] ?
a: 8.96

q: Also C=CCN1C[C@H](C)N([C@H](c2ccc(C(N)=O)cc2)c2cccc(O)c2)C[C@@H]1C [Compound 5] ?
a: 8.80

q: Also CCN(CC)C(=O)c1ccc([C@H](c2cccc(O)c2)N2C[C@@H](C)N(C)C[C@H]2C)cc1 [Compound 15] ?
a: 8.55

###

molecular target: delta opioid receptor (Rattus norvegicus, UniProt P33533); construct: Rat (Sprague-Dawley) brain membranes were prepared; from tissue; host or cells: rat (Sprague-Dawley) brain membranes; assay: Delta receptor binding in rat brain membranes (Delta Receptor IC50); details: rat brain membranes; radioligand 3H-[D-Pen2,D-Pen5]-(enkephalin) 0.1 nM; read-out: Delta Receptor IC50
Assay metric: pIC50
A value of pIC50 is the negative decimal logarithm of a concentration given in moles per litre.

q: Endpoint output: pIC50 of C=CCN1C[C@H](C)N([C@H](c2ccc(C(N)=O)cc2)c2cccc(O)c2)C[C@H]1C (relative stereo) . Value?
a: 8.80

q: Also C=CCN1C[C@@H](C)N([C@H](c2ccc(S(C)(=O)=O)cc2)c2cccc(O)c2)C[C@@H]1C (relative stereo) ?
a: 8.89

q: Also `CCN(CC)C(=O)c1ccc([C@@H](c2cccc(O)c2)N2C[C@H](C)N(C)C[C@@H]2C)cc1` ?
a: 8.70

q: Also CCN(CC)C(=O)c1ccc([C@H](c2cccc(O)c2)N2C[C@H](C)NC[C@H]2C)cc1 (relative stereo) ?
a: 9.15

q: Also C=CCN1C[C@H](C)N([C@H](c2ccccc2)c2cccc(O)c2)C[C@H]1C (relative stereo) ?
a: 8.89

###

Please respond with reported IC50 for every item in the list.
biological target: delta opioid receptor (Rattus norvegicus); construct: Rat (Sprague-Dawley) brain membranes were prepared; from tissue; host or cells: rat (Sprague-Dawley) brain membranes; experiment: Delta receptor binding in rat brain membranes (Delta Receptor IC50)
Express your answer in nM, writing the number without its unit.

q: Endpoint output: IC50 of `C=CCN1C[C@@H](C)N([C@@H](c2ccc(C(=O)N(CC)CC)cc2)c2cccc(O)c2)C[C@H]1C` . Value?
a: 1

q: Also C=CCN1C[C@@H](C)N([C@H](c2ccc(C(=O)N(CC)CC)cc2)c2cccc(O)c2)C[C@H]1C (stereo in doubt) ?
a: 2

###

target: delta opioid receptor in the mouse vas deferens (Mus musculus); construct: Vasa deferentia were removed from mice; from tissue; host or cells: mouse vas deferens (isolated organ bath); assay: Electrically stimulated mouse vas deferens, delta opioid agonist potency (ED50); conditions: inhibition of electrically induced muscle contractions; read-out: Mouse Vas Deferens ED50
Sequence (P32300 whole entry): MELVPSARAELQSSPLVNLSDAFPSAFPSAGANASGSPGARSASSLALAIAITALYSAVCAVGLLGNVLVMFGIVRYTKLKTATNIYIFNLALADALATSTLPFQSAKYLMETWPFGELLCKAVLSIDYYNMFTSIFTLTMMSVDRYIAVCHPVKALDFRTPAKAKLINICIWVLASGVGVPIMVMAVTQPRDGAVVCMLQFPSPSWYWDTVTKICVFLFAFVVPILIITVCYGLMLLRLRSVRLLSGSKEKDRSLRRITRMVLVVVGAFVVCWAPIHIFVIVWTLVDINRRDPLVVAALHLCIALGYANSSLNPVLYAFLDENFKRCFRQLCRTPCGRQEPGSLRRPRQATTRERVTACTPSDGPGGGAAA
Please respond with reported log10(EC50) for every item in the list.
Please interpret these as log10 of EC50 where EC50 is in nM.

q: Query the reported log10(EC50) for delta opioid receptor in the mouse vas deferens (Mus musculus); item: C=CCN1C[C@H](C)N([C@H](c2ccc(C(N)=O)cc2)c2cccc(O)c2)C[C@H]1C (relative stereo)
a: 1.64

q: Also C=CCN1C[C@@H](C)N([C@H](c2ccc(S(C)(=O)=O)cc2)c2cccc(O)c2)C[C@@H]1C (relative stereo) ?
a: 2.40

q: Also C=CCN1C[C@H](C)N([C@H](c2ccccc2)c2cccc(O)c2)C[C@H]1C (relative stereo) ?
a: 1.89

q: Also `C=CCN1C[C@H](C)N([C@H](c2ccc(C(N)=O)cc2)c2cccc(O)c2)C[C@@H]1C` ?
a: 2.41

q: Also CCN(CC)C(=O)c1ccc([C@H](c2cccc(O)c2)N2C[C@H](C)NC[C@H]2C)cc1 (relative stereo) ?
a: 3.64

q: Also `C=CCN1C[C@H](C)N([C@H](c2ccc(C(=O)N(C)CC)cc2)c2cccc(O)c2)C[C@@H]1C` ?
a: 1.48
